For each of the compounds below, state its melting point.

The value of melting point measured for the compound `CC1(C)Cc2nc(C3CCCC3)c(C(=O)c3ccc(C(F)(F)F)cc3)c(-c3ccc(Cl)cc3)c2[C@@H](O)C1` turned out to be 168 to 169 °C

The value of melting point measured for the compound `CC1(C)Cc2nc(C3CCCC3)c([C@@H](F)c3ccc(C(F)(F)F)cc3)c(-c3ccc(Cl)cc3)c2[C@@H](O)C1` turned out to be 138 to 139 °C

The value of melting point measured for the compound `Cc1ccc(-c2c([C@@H](F)c3ccc(C(F)(F)F)cc3)c(C3CCCC3)nc3c2[C@@H](O)CC(C)(C)C3)cc1` turned out to be 156 to 158 °C

The value of melting point measured for the compound `CCOc1ccc(-c2c([C@@H](F)c3ccc(C(F)(F)F)cc3)c(C3CCCC3)nc3c2[C@@H](O)CC(C)(C)C3)cc1.Cl` turned out to be 206 to 207 °C

The value of melting point measured for the compound `CC1(C)Cc2nc(C3CCCC3)c(C(=O)c3ccc(C(F)(F)F)cc3)c(-c3ccc(F)c(F)c3)c2[C@@H](O)C1` turned out to be 166 to 168 °C

The value of melting point measured for the compound `CC1(C)Cc2nc(C3CCCC3)c(C(=O)c3ccc(C(F)(F)F)cc3)c(-c3cccc(F)c3)c2[C@@H](O)C1` turned out to be 167 to 168 °C

* * *

assayMetric: melting point

The value of melting point measured for the compound COc1ccc(-c2c(C(=O)c3ccc(C(F)(F)F)cc3)c(C3CCCC3)nc3c2[C@@H](O)CC(C)(C)C3)cc1 [Example 47] turned out to be 171 to 174 °C

The value of melting point measured for the compound CC1(C)Cc2nc(C3CCCC3)c(Cc3ccc(C(F)(F)F)cc3)c(-c3ccc(Cl)cc3)c2[C@@H](O)C1 [Example 56] turned out to be 136 to 137 °C

The value of melting point measured for the compound CC1(C)Cc2nc(C3CCCC3)c([C@@H](F)c3ccc(C(F)(F)F)cc3)c(-c3ccc(C(F)(F)F)cc3)c2[C@@H](O)C1 [Example 54] turned out to be 175 to 176 °C

The value of melting point measured for the compound CC1(C)Cc2nc(C3CCCC3)c(C(=O)c3ccc(C(F)(F)F)cc3)c(-c3ccc(C(F)(F)F)cc3)c2[C@@H](O)C1 [Example 48] turned out to be 157 to 162 °C

The value of melting point measured for the compound Cc1ccc(-c2c(C(=O)c3ccc(C(F)(F)F)cc3)c(C3CCCC3)nc3c2[C@@H](O)CC(C)(C)C3)cc1 [Example 51] turned out to be 153 to 155 °C

The value of melting point measured for the compound CC1(C)Cc2nc(C3CCCC3)c([C@@H](F)c3ccc(C(F)(F)F)cc3)c(-c3cccc(F)c3)c2[C@@H](O)C1 [Example 61] turned out to be 129 °C

The value of melting point measured for the compound Cc1ccc(-c2c(Cc3ccc(C(F)(F)F)cc3)c(C3CCCC3)nc3c2[C@@H](O)CC(C)(C)C3)cc1 [Example 62] turned out to be 106 to 108 °C
